The origin of these recorded values is patent US20060069132A1.

System: lambsquarters
Assay: Test B pre-/postemergence herbicide test
Type: in vivo, Chenopodium album
Conditions: Postemergence, 500 g ai/ha; scale 0 (no effect) to 100 (complete control)
endpoint_name: Lambsquarters plant response rating
Give the figure only, with no unit attached.

Given the entry Cc1nn(C(C)(C)C)nc1C(=O)Nc1cccc(C(=O)N2CC=CC2)c1 [Compound 393] , what Lambsquarters plant response rating was observed with lambsquarters?
80

# repeat for CCc1nn(C(C)(C)C)nc1C(=O)Nc1cccc(C(=O)N(C)CC)c1 [Compound 384]
80

Now the same for CCNC(=O)c1ccc(F)c(NC(=O)c2nn(C(C)(C)C)nc2C)c1 [Compound 377]
70

----------
Tested on: blackgrass
Test: Test B postemergence herbicide test
Format: in vivo, Alopecurus myosuroides
Settings: postemergence, 500 g ai/ha; scale 0 to 100, 0 is no effect, 100 is complete control
Please respond with true (1) when measured Blackgrass plant response rating is strictly beneath 20, and with false (0) in all other cases.

Below 20 on Blackgrass plant response rating? Entry CCc1nn(C(C)(C)C)nc1C(=O)Nc1cccc(C(=O)N(C)CC)c1 [Compound 384]
false (0)

# iterate: CCNC(=O)c1ccc(F)c(NC(=O)c2nn(C(C)(C)CC)nc2CC)c1 [Compound 370]
true (1)

Do the same for CCc1nn(C(C)(C)C)nc1C(=O)Nc1cc(C(=O)N(C)C)ccc1F [Compound 361] please
false (0)

What would you report for CCn1nc(C(C)(C)C)cc1C(=O)Nc1cc(C(=S)N(C)C)ccn1 [Compound 334] ?
false (0)

----------
Test system: ducksalad
Assay: Test B flooded paddy test
Assay type: in vivo, Heteranthera limosa
Conditions: 1000 g ai/ha, visual rating, scale 0 to 100 (0 no effect, 100 complete control), 13 to 15 days
Label YES when Ducksalad plant response rating is at or above 80; anything below gets NO.

Assess whether reported Ducksalad plant response rating for CCOC(=O)c1ccc(F)c(NC(=O)c2cc(C(C)C)nn2CC)c1 sits at 80 or higher.
NO

Same again, this time with CCc1nc(C(C)(C)C)sc1C(=O)Nc1cccc(C(=O)NCC(F)(F)F)c1
NO

For CCCCOC(=O)c1cccc(NC(=O)c2cc(C(C)(C)C)nn2CC)c1 then?
NO

Ok, now CC(=NO)c1cc(NC(=O)c2cc(C(C)(C)C)nn2C)ccc1F
YES

Here is the next compound: CC(=NO)c1cccc(NC(=O)c2cc(C(C)(C)C)nn2CCF)c1
YES

Can you handle C=Cn1nc(C(C)(C)C)cc1C(=O)Nc1cccc(C(=O)NCC(F)(F)F)c1 next?
NO

Would you mind doing CCn1nc(C(C)(C)C)cc1C(=O)Nc1cc(C(=O)OC)cc(C)n1 as well?
NO

CC(=NO)c1cccc(NC(=O)c2cc(C(C)(C)C)nn2C(C)C)c1 ?
NO

Further, for C=Cn1nc(C(C)(C)C)cc1C(=O)Nc1cccc(C(C)=O)c1 ?
YES

Same question for CCON=C(C)c1cccc(NC(=O)c2cc(C(C)(C)C)nn2C)c1 please.
NO

----------
Tested on: ducksalad
Assay: Test C flooded paddy test
Format: in vivo, Heteranthera limosa
Conditions: 62 g ai/ha, scale 0 to 100 (0 no effect, 100 complete control)
Exercise: for every item that follows, state its recorded Ducksalad plant response rating.
Would you mind answering with just the numeric figure?

Form field: reported Ducksalad plant response rating of CCNC(=O)c1cc(NC(=O)c2cc(C(C)(C)C)nn2CC)ccc1F [Compound 58]
0

What do we get for CCOC(=O)c1cc(NC(=O)c2cc(C(C)(C)C)nn2CC)ccc1OC [Compound 96] ?
45

And CCn1nc(C(C)(C)C)cc1C(=O)Nc1cc(C(=O)NCCOC)ccn1 [Compound 161] ?
30

Continue with CCNC(=O)c1cccc(NC(=O)c2cn(C(C)(C)C)nc2C(F)(F)F)c1 [Compound 192]
0
